These entries and their values trace back to patent US10322132B2.

# target.or.test.system: human urate transporter 1 (hURAT1) (Homo sapiens, UniProt Q96S37)
# Construct: expressed in transfected cells; host or cells: HEK-293T
# Sequence (Q96S37 1-553): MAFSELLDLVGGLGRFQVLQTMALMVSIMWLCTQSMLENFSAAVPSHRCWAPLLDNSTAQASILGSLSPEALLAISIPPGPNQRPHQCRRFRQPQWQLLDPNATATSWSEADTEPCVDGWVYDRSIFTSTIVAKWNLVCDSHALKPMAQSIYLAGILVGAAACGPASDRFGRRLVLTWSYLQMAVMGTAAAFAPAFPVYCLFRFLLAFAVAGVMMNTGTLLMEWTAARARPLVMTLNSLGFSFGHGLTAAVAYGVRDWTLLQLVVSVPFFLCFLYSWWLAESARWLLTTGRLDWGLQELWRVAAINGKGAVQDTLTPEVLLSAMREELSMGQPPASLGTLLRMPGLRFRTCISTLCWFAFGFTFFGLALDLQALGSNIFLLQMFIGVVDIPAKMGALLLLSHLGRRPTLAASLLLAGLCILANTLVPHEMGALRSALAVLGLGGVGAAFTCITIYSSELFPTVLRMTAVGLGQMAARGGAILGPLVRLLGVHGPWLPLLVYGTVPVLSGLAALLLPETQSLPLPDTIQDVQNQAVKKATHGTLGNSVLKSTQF
# assay.details: Uptake of 14C-labeled uric acid in hURAT1 transfected cells
# Format: cell-based
# assay.context: 14C uric acid uptake, hURAT1-transfected HEK-293T cells, 5 min at 37° C.; read-out: IC50 (μM), inhibition of hURAT1 activity

[
  {
    "compound": "CCCCn1c(=O)[nH]c(=O)c2[nH]c(Cl)nc21 [Compound B]",
    "unit.tag": "µM",
    "IC50": 3.02
  },
  {
    "compound": "CCCCCn1c(=O)[nH]c(=O)c2[nH]c(Cl)nc21 [Compound A]",
    "unit.tag": "µM",
    "IC50": 2.52
  },
  {
    "compound": "CCCCCn1c(=O)n(C)c(=O)c2[nH]c(Cl)nc21 [Compound D]",
    "unit.tag": "µM",
    "IC50": 0.87
  }
]

----------
# assay.details: Uric acid-lowering test in monkeys having hyperuricemia (UA subcutaneous injection)
# Format: in vivo, cynomolgus monkeys
# assay.context: cynomolgus monkey, serum, sc; uric acid (UA) by subcutaneous injection at the nape, cynomolgus monkeys from the model group; read-out: half-life (t½z) (converted)
observed.property: half-life (min)

[
  {
    "molecule": "O=c1[nH]c(=O)c2[nH]c(=O)[nH]c2[nH]1 [uric acid (UA), uric acid]",
    "test.value": 32.4
  }
]
